Taken from patent US11667688B2.

Measured In vitro Activity (Relative Activity of SEQ ID NO: 1, %), listed per entry for reference.
biological target: human glucagon receptors (Homo sapiens); construct: a region corresponding to Open Reading Frame (ORF) in the cDNA; expressed in transfected cells; assay: cAMP activity of glucagon derivatives in CHO cell line transfected with human glucagon receptor (LANCE cAMP kit); format: cell-based; settings: cAMP EC50 compared with that of native glucagon; CHO cells with human glucagon receptor
Sequence (P47871 26-477): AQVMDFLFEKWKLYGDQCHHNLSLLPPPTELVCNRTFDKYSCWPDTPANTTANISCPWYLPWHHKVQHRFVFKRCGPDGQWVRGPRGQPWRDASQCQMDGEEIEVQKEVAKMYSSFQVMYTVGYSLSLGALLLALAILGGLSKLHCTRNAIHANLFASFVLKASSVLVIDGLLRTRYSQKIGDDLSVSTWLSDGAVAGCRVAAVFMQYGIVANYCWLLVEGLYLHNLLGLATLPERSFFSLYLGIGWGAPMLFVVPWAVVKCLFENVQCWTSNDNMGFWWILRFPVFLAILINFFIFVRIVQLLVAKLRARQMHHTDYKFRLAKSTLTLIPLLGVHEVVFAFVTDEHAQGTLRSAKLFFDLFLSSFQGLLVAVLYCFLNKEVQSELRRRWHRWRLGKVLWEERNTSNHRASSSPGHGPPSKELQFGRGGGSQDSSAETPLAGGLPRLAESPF
Bridge positions count the residues as written; N and C are the ends. Square brackets hold non-standard residues; d marks the D form. Ends that are not written are not given here. Aib = CC(C)(N)C(=O)O
Report only the number, with the unit % understood.

Some solved cases for reference:
seq_string="YXQGTFCSDYSKYLDERRAKDFVQWLMNT (Y[Aib]QGTFCSDYSKYLDERRAKDFVQWLMNT; bridge 16-20) [SEQ ID NO: 41, glucagon derivative, X = Aib]" readout_number=45.2
seq_string="YXQGTFTSDYSKYLDEKCAKEFVQWLMNT [SEQ ID NO: 11] (Y[Aib]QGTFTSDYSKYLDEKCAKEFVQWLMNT; not fully specified) [glucagon derivative, X = Aib]" readout_number=4.6
seq_string="YXQGTFTSDYSKYLCEKRAKEFVQWLMNT (Y[Aib]QGTFTSDYSKYLCEKRAKEFVQWLMNT; bridge 16-20) [SEQ ID NO: 19, glucagon derivative, X = Aib]" readout_number=12.1

Tell me the measured In vitro Activity (Relative Activity of SEQ ID NO: 1, %) of YXQGTFTSDYSKYLDCKRAKEFVQWLMNT [SEQ ID NO: 14] (Y[Aib]QGTFTSDYSKYLDCKRAKEFVQWLMNT; not fully specified) [glucagon derivative, X = Aib] , please.
18.1

State the recorded In vitro Activity (Relative Activity of SEQ ID NO: 1, %) for this entry: YXQGTFTSDYSKYLDCVRAQDFVQWLMRT (Y[Aib]QGTFTSDYSKYLDCVRAQDFVQWLMRT) [SEQ ID NO: 17, glucagon derivative, X = Aib]
23.2
